# ASSAYED TARGET: human Glu-plasminogen (Homo sapiens)
# Construct: human Glu-plasminogen; purchased Chromogenix, Italy
# Sequence (P00747 20-810 limits assumed): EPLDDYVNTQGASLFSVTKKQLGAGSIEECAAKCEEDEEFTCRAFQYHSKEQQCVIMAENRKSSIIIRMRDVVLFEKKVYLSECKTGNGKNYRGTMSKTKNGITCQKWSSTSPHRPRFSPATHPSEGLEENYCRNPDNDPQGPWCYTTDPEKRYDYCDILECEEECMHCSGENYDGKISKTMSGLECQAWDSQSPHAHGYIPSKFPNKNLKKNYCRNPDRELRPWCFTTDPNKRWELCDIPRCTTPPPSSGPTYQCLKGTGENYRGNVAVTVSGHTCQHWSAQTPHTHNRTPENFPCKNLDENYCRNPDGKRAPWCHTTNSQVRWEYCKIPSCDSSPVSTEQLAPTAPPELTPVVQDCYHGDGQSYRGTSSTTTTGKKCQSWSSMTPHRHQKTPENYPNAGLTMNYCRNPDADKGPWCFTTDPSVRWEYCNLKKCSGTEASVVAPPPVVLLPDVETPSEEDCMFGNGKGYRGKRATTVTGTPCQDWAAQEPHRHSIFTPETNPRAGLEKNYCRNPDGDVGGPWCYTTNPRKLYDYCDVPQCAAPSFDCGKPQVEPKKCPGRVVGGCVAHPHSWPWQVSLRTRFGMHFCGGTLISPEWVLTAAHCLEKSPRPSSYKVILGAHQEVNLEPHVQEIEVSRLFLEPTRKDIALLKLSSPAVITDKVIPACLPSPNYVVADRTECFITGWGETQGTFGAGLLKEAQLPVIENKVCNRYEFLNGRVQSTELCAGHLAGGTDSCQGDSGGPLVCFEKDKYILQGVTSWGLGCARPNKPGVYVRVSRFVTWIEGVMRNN
# TEST DETAILS: Clot-lysis buffer assay
# Format: biochemical
pIC50: −log10 of the molar value.
Rule: pIC50 under 5 gives false (0), otherwise true (1).

Quick check: does `O=c1cc([C@H]2CCN[C@@H](COC3CCCCC3)C2)o[nH]1` have pIC50 greater than or equal to 5?
true (1)

Please tell me: is the compound `Cc1cc([C@H]2C[C@@H](c3cc(=O)[nH]o3)CCN2)ccc1C(F)(F)F` at or over 5 in terms of pIC50?
true (1)

Could you verify whether the entry `O=c1cc([C@@H]2CCN[C@@H](Cc3cc(F)cc(F)c3)C2)o[nH]1` shows pIC50 of no less than 5?
false (0)

Item `O=c1cc([C@H]2CCN[C@@H](c3ccc(Cl)c(F)c3)C2)o[nH]1` with pIC50 of 5 or above?
true (1)

I'd appreciate it if you could say whether O=c1cc([C@@H]2CCN[C@@H](c3ccc(C(F)(F)F)cc3F)C2)o[nH]1 (relative stereo) has pIC50 at least equal to 5.
false (0)

Is pIC50 for `O=c1cc([C@@H]2CCN[C@H](Cc3ccccc3C(F)(F)F)C2)o[nH]1` at or above 5?
false (0)

Dear colleague, could you confirm whether `O=c1cc([C@H]2CCN[C@@H](Cc3cc(F)c(F)c(F)c3)C2)o[nH]1` has pIC50 at or above 5?
true (1)

Dear colleague, could you confirm whether `O=c1cc([C@@H]2CCN[C@H](Cc3cc(F)c(F)c(F)c3)C2)o[nH]1` has pIC50 at or above 5?
false (0)

Is the recorded value of pIC50 equal to or greater than 5 for this compound? `O=c1cc([C@H]2CCN[C@@H](Cc3cc(F)cc(C(F)(F)F)c3)C2)o[nH]1`
true (1)

Check if pIC50 >= 5 (inclusive). Item: `CC(C)(C)c1cccc([C@H]2C[C@@H](c3cc(=O)[nH]o3)CCN2)c1`
true (1)

Item O=c1cc([C@@H]2CCN[C@@H](c3ccc(F)cc3Cl)C2)o[nH]1 (relative stereo) with pIC50 of 5 or above?
false (0)

Please tell me: is the compound O=c1cc([C@@H]2CCN[C@@H](Cc3cc(F)ccc3F)C2)o[nH]1 (relative stereo) at or over 5 in terms of pIC50?
true (1)

Is pIC50 for `O=c1cc([C@H]2CCN[C@@H](c3ccc(OC(F)(F)F)cc3F)C2)o[nH]1` at or above 5?
true (1)

Record O=c1cc([C@@H]2CCN[C@@H](Cc3ccc(F)cc3F)C2)o[nH]1 (relative stereo) ; criterion: pIC50 no lower than 5. Met?
true (1)

Assess whether reported pIC50 for O=c1cc([C@@H]2CCN[C@@H](c3ccc(F)c(F)c3)C2)o[nH]1 (relative stereo) sits at 5 or higher.
false (0)

* * *

Observed pIC50, system human Glu-plasminogen (Homo sapiens).
Just the number, please; pIC50 means minus log10 of the concentration in mol/L.

Which pIC50 is reported for this compound? `O=c1cc([C@@H]2CCN[C@H](Cc3cccc(C(F)(F)F)c3)C2)o[nH]1`
4.15

Look up pIC50: O=c1cc([C@@H]2CCN[C@@H](COC3CCCCC3)C2)o[nH]1 (relative stereo)
4.81

Quick one: pIC50 for `O=c1cc([C@H]2CCN[C@@H](c3cccc(C(F)(F)F)c3)C2)o[nH]1` ?
6.15

Suppose we examine the compound `O=c1cc([C@H]2CCN[C@@H](Cc3ccc(C(F)(F)F)c(F)c3)C2)o[nH]1` ; what pIC50 value has been reported?
6.22

Which pIC50 is reported for this compound? `O=c1cc([C@@H]2CCN[C@H](Cc3ccc(F)c(F)c3)C2)o[nH]1`
3.92

Quick one: pIC50 for `O=c1cc([C@H]2CCN[C@H](c3ccc(Cl)cc3Cl)C2)o[nH]1` ?
4.14

I have this compound here, `O=c1cc([C@H]2CCN[C@@H](Cc3cc(F)ccc3F)C2)o[nH]1` , and I need its recorded pIC50.
5.92

Which value of pIC50 has been reported for O=c1cc([C@@H]2CCN[C@@H](c3ccc(C(F)(F)F)cc3)C2)o[nH]1 (relative stereo) in the records?
4.84
